All values here come from patent US9481670B2.

Molecular target: PI3K alpha (Homo sapiens)
Sequence (P42336 whole entry): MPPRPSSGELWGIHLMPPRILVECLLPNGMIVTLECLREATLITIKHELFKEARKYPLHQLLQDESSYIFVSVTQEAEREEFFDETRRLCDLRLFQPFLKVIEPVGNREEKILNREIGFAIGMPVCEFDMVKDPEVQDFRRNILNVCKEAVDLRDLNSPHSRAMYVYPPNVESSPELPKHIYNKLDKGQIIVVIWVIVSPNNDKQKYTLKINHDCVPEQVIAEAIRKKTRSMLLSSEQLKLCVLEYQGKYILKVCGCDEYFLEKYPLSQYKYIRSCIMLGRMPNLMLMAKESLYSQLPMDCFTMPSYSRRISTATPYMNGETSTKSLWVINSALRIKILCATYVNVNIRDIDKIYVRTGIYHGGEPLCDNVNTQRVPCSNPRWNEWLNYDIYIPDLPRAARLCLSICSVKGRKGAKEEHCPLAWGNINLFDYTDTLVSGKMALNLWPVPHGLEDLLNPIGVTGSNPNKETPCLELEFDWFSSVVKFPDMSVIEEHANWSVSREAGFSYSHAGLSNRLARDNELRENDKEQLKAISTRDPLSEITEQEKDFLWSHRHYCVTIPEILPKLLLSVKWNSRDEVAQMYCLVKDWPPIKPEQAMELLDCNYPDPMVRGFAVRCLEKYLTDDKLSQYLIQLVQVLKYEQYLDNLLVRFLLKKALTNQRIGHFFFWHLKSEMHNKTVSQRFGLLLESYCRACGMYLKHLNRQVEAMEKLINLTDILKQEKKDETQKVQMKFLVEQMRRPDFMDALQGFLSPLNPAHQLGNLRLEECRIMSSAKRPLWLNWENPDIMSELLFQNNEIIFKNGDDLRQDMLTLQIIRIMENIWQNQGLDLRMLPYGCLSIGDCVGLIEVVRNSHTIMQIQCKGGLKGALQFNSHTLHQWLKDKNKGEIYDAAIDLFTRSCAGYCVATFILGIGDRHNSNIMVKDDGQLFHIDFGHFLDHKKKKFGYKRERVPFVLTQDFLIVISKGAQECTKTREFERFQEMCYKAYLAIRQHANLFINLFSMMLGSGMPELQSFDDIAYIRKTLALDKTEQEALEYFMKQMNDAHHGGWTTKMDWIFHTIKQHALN
Sequence (P27986 whole entry partner): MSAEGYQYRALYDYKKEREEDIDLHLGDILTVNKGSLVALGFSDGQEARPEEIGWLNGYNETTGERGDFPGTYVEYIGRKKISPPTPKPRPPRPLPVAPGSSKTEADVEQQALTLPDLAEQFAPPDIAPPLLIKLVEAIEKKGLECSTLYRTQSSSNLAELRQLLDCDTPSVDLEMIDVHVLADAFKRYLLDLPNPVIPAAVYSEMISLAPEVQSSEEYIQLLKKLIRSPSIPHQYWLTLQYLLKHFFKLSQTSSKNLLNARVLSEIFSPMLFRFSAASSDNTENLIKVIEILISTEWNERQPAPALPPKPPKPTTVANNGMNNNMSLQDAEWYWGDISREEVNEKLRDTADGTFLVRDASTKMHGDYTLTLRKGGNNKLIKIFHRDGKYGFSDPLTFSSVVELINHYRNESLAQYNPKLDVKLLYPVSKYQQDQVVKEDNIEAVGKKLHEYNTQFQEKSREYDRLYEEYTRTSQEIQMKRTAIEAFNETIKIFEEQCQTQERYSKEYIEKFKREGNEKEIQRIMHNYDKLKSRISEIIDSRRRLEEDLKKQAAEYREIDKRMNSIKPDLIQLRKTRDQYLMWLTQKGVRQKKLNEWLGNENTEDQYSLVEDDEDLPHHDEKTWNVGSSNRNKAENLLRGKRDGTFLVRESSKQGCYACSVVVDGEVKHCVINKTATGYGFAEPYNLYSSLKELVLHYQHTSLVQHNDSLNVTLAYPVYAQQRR
pIC50: −log10 of the molar value.
quantity-measured: pIC50

Before answering, review these 5 worked examples.
pIC50 in this record for NS(=O)(=O)Nc1ccc(Oc2nc(-c3cccc4[nH]ncc34)nc(N3CCOCC3)n2)cc1 : > 5.30

The reported value for CN1CCN(c2nc(Oc3ccc(C(=O)N(C)C)cc3)nc(-c3cccc4[nH]ncc34)n2)CC1 in terms of pIC50 is < 5.30

Entry O=C(O)CNc1nc(-c2ccccc2)nc(N2CCOCC2)n1 — recorded pIC50 = < 5.30

The recorded pIC50 for Nc1ncc(-c2nc(N3CCOCC3)nc(N3CCOCC3)n2)s1 is > 5.30

The compound listed as CN(C)C(=O)c1cccc(Oc2nc(-c3cccc4[nH]ncc34)nc(N3CCOCC3)n2)c1 shows pIC50 equal to > 5.30

Query compound follows.
Sample CN(C)C(=O)c1cccc(Nc2nc(-c3cccc4[nH]ncc34)nc(N3CCOCC3)n2)c1 ; pIC50 observed: > 5.30

---

Recorded IC50 values (PI3K alpha (Homo sapiens, UniProt P42336)) are given below.

Below, 3 compounds whose answers are already recorded.
// sample CN(C)C(=O)c1cccc(Nc2nc(-c3cccc4[nH]ncc34)nc(N3CCNC(=O)C3)n2)c1 , its IC50 was > 5 µM

Memo: O=C1CN(C(=O)c2cccc(Nc3nc(-c4cccc5[nH]ncc45)nc(N4CCOCC4)n3)c2)CCN1 , reported IC50: < 5 µM

// Nc1ncc(-c2nc(Nc3nccs3)nc(N3CCOCC3)n2)s1 : IC50 value = < 5 µM

Next, consider the following compound.
Memo: CC(Nc1nc(-c2cccc(O)c2)nc(N2CCOCC2)n1)C(=O)O (stereo not shown) , reported IC50: < 5 µM

---

Assay: Pharmacokinetic study, oral dosing, plasma concentration by LC-MS/MS
Format: in vivo
Conditions: mouse; female swiss mice, fasted overnight, oral 3 mg/kg in PEG 400, plasma
quantity-measured: Cmax (nM)
Give bare numbers, in nM.

Sample CNC(=O)c1ccc(Oc2nc(-c3cccc4[nH]ncc34)nc(N3CCOCC3)n2)cc1 ; Cmax observed: 1240

---

Reported IC50 values, PI3K alpha (Homo sapiens, UniProt P42336).

IC50 reading for ON=C1CCN(c2nc(-c3cccc4[nH]ncc34)nc(N3CCOCC3)n2)CC1 : < 5 µM

For every item in the list below, what is its measured IC50?
1. CN(C)C(=O)c1ccc(Oc2nc(-c3cccc4[nH]ncc34)nc(N3CCNC(=O)CC3)n2)cc1
2. CNC(=O)[C@H]1CC[C@@H](Nc2nc(-c3cccc4[nH]ncc34)nc(N3CCOCC3)n2)CC1
3. CN(C)C(=O)c1ccc(Oc2nc(-c3ccnc4[nH]ccc34)nc(N3CCOCC3)n2)cc1

Solution:
1: > 5 µM; 2: < 5 µM; 3: < 5 µM

Quick batch: IC50 for everything below.
1. CN(C)C(=O)[C@H]1C[C@H](Oc2nc(-c3cccc4[nH]ncc34)nc(N3CCOCC3)n2)CN1C
2. O=C(O)CNc1nc(-c2ccc(O)nc2)nc(N2CCOCC2)n1
3. CS(=O)(=O)Nc1cccc(-c2nc(NCC(=O)O)nc(N3CCOCC3)n2)c1
4. CS(=O)(=O)N1CCN(C(=O)CNc2nc(-c3ccc(F)nc3)nc(N3CCOCC3)n2)CC1

Solution:
< 5 µM
> 5 µM
> 5 µM
> 5 µM
